target: 3-pTza peptide (Biotin-AminocaproicAcid-A.G.A.G.3-pTza.A.G.A.G); assay: BLI; Octet RED96e; biotinylated peptides captured on streptavidin biosensors at 20 nM; Fab in solution, 20-200 nM; 1x HBS-T, 1% BSA
quantity-measured: koff (s⁻¹)
Write the value in s⁻¹ as a bare number.

binder="hSC44.20 Fab (Fab, V domains shown) VH: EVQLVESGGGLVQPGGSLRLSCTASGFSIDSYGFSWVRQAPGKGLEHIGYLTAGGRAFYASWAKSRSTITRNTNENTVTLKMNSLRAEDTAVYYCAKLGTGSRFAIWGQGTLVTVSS VL: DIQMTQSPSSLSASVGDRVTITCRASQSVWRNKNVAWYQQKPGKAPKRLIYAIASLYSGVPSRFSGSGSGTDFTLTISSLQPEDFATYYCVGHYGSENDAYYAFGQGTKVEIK" u=s⁻¹ observed_measurement=0.000103

Record rSC44 Fab (Fab, V domains shown) VH: QSVKESGRGLVQPGGSLTLTCTASGFSIDSYGFSWVRQAPGKGLEHIGYLTAGGRAFYASWAKSRSTITRNTNENTVTLKMTSLTAADTATYFCAKLGSGNPVAIWGPGTLVTVSS VL: QVLTQTPSFTSAAVGGTVTINCQSSQSVWRNKNLAWYQQKPGQPPKRLIYAIATLDSGVPSRFSGSGSGTQFTLTISDVQCDDAATYYCVGHYGSENDAYYAFGGGTEVVVK , field koff: 0.000135
